Origin of measurements: BigSolDB 2.1

recordedConditions: in isopropyl acetate, 303.15 K
parameterMeasured: solubility (mole fraction)

| moleculeSmiles | testValue |
| --- | --- |
| CCCN(CCc1cccs1)[C@H]1CCc2c(O)cccc2C1 | 0.0553 |

====

recordedConditions: in n-propyl acetate, 283.15 K
parameterMeasured: solubility (mole fraction)

| moleculeSmiles | parameterMeasured | testValue |
| --- | --- | --- |
| CCCN(CCc1cccs1)[C@H]1CCc2c(O)cccc2C1 | solubility (mole fraction) | 0.0305 |

====

recordedConditions: in ethyl acetate, 288.15 K

| moleculeSmiles | solubility (mole fraction) |
| --- | --- |
| CCCN(CCc1cccs1)[C@H]1CCc2c(O)cccc2C1 | 0.0369 |

====

recordedConditions: in n-butanol, 298.15 K

| moleculeSmiles | solubility (mole fraction) |
| --- | --- |
| CCCN(CCc1cccs1)[C@H]1CCc2c(O)cccc2C1 | 0.0222 |

====

recordedConditions: in isopropyl acetate, 313.15 K

| moleculeSmiles | solubility (mole fraction) |
| --- | --- |
| CCCN(CCc1cccs1)[C@H]1CCc2c(O)cccc2C1 | 0.0782 |

====

recordedConditions: in ethanol, 278.15 K
parameterMeasured: solubility (mole fraction)

| moleculeSmiles | testValue |
| --- | --- |
| CCCN(CCc1cccs1)[C@H]1CCc2c(O)cccc2C1 | 0.00236 |

====

recordedConditions: in isopropanol, 288.15 K

| moleculeSmiles | solubility (mole fraction) |
| --- | --- |
| CCCN(CCc1cccs1)[C@H]1CCc2c(O)cccc2C1 | 0.00598 |

====

recordedConditions: in methyl acetate, 298.15 K

| moleculeSmiles | solubility (mole fraction) |
| --- | --- |
| CCCN(CCc1cccs1)[C@H]1CCc2c(O)cccc2C1 | 0.0323 |

====

recordedConditions: in n-propyl acetate, 313.15 K
parameterMeasured: solubility (mole fraction)

| moleculeSmiles | parameterMeasured | testValue |
| --- | --- | --- |
| CCCN(CCc1cccs1)[C@H]1CCc2c(O)cccc2C1 | solubility (mole fraction) | 0.0834 |

====

recordedConditions: in ethanol, 303.15 K
parameterMeasured: solubility (mole fraction)

| moleculeSmiles | testValue |
| --- | --- |
| CCCN(CCc1cccs1)[C@H]1CCc2c(O)cccc2C1 | 0.0183 |

====

recordedConditions: in ethanol, 293.15 K

| moleculeSmiles | solubility (mole fraction) |
| --- | --- |
| CCCN(CCc1cccs1)[C@H]1CCc2c(O)cccc2C1 | 0.00912 |

====

recordedConditions: in n-butyl acetate, 283.15 K

| moleculeSmiles | solubility (mole fraction) |
| --- | --- |
| CCCN(CCc1cccs1)[C@H]1CCc2c(O)cccc2C1 | 0.0368 |

====

recordedConditions: in ethyl acetate, 303.15 K
parameterMeasured: solubility (mole fraction)

| moleculeSmiles | testValue |
| --- | --- |
| CCCN(CCc1cccs1)[C@H]1CCc2c(O)cccc2C1 | 0.0601 |

====

recordedConditions: in methyl acetate, 313.15 K
parameterMeasured: solubility (mole fraction)

| moleculeSmiles | testValue |
| --- | --- |
| CCCN(CCc1cccs1)[C@H]1CCc2c(O)cccc2C1 | 0.0587 |

====

recordedConditions: in n-butyl acetate, 293.15 K

| moleculeSmiles | solubility (mole fraction) |
| --- | --- |
| CCCN(CCc1cccs1)[C@H]1CCc2c(O)cccc2C1 | 0.051 |

====

recordedConditions: in methanol, 278.15 K
parameterMeasured: solubility (mole fraction)

| moleculeSmiles | testValue |
| --- | --- |
| CCCN(CCc1cccs1)[C@H]1CCc2c(O)cccc2C1 | 0.00131 |

====

recordedConditions: in n-propanol, 298.15 K
parameterMeasured: solubility (mole fraction)

| moleculeSmiles | testValue |
| --- | --- |
| CCCN(CCc1cccs1)[C@H]1CCc2c(O)cccc2C1 | 0.0175 |

====

recordedConditions: in methanol, 288.15 K

| moleculeSmiles | solubility (mole fraction) |
| --- | --- |
| CCCN(CCc1cccs1)[C@H]1CCc2c(O)cccc2C1 | 0.00379 |

====

recordedConditions: in methanol, 298.15 K

| moleculeSmiles | solubility (mole fraction) |
| --- | --- |
| CCCN(CCc1cccs1)[C@H]1CCc2c(O)cccc2C1 | 0.00696 |

====

recordedConditions: in n-propanol, 303.15 K
parameterMeasured: solubility (mole fraction)

| moleculeSmiles | testValue |
| --- | --- |
| CCCN(CCc1cccs1)[C@H]1CCc2c(O)cccc2C1 | 0.0237 |

====

recordedConditions: in methyl acetate, 278.15 K

| moleculeSmiles | solubility (mole fraction) |
| --- | --- |
| CCCN(CCc1cccs1)[C@H]1CCc2c(O)cccc2C1 | 0.0124 |

====

recordedConditions: in n-propanol, 308.15 K

| moleculeSmiles | solubility (mole fraction) |
| --- | --- |
| CCCN(CCc1cccs1)[C@H]1CCc2c(O)cccc2C1 | 0.0298 |

====

recordedConditions: in methyl acetate, 288.15 K

| moleculeSmiles | solubility (mole fraction) |
| --- | --- |
| CCCN(CCc1cccs1)[C@H]1CCc2c(O)cccc2C1 | 0.0211 |

====

recordedConditions: in ethyl acetate, 308.15 K

| moleculeSmiles | solubility (mole fraction) |
| --- | --- |
| CCCN(CCc1cccs1)[C@H]1CCc2c(O)cccc2C1 | 0.0707 |

====

recordedConditions: in isopropyl acetate, 278.15 K
parameterMeasured: solubility (mole fraction)

| moleculeSmiles | testValue |
| --- | --- |
| CCCN(CCc1cccs1)[C@H]1CCc2c(O)cccc2C1 | 0.0201 |

====

recordedConditions: in isopropyl acetate, 308.15 K

| moleculeSmiles | solubility (mole fraction) |
| --- | --- |
| CCCN(CCc1cccs1)[C@H]1CCc2c(O)cccc2C1 | 0.0661 |

====

recordedConditions: in n-butyl acetate, 313.15 K

| moleculeSmiles | solubility (mole fraction) |
| --- | --- |
| CCCN(CCc1cccs1)[C@H]1CCc2c(O)cccc2C1 | 0.0915 |

====

recordedConditions: in n-propanol, 278.15 K
parameterMeasured: solubility (mole fraction)

| moleculeSmiles | testValue |
| --- | --- |
| CCCN(CCc1cccs1)[C@H]1CCc2c(O)cccc2C1 | 0.00555 |

====

recordedConditions: in ethyl acetate, 298.15 K

| moleculeSmiles | solubility (mole fraction) |
| --- | --- |
| CCCN(CCc1cccs1)[C@H]1CCc2c(O)cccc2C1 | 0.0512 |

====

recordedConditions: in n-butanol, 308.15 K

| moleculeSmiles | solubility (mole fraction) |
| --- | --- |
| CCCN(CCc1cccs1)[C@H]1CCc2c(O)cccc2C1 | 0.0387 |

====

recordedConditions: in n-propyl acetate, 288.15 K
parameterMeasured: solubility (mole fraction)

| moleculeSmiles | testValue |
| --- | --- |
| CCCN(CCc1cccs1)[C@H]1CCc2c(O)cccc2C1 | 0.0371 |

====

recordedConditions: in isopropanol, 313.15 K
parameterMeasured: solubility (mole fraction)

| moleculeSmiles | testValue |
| --- | --- |
| CCCN(CCc1cccs1)[C@H]1CCc2c(O)cccc2C1 | 0.0311 |

====

recordedConditions: in ethyl acetate, 283.15 K

| moleculeSmiles | solubility (mole fraction) |
| --- | --- |
| CCCN(CCc1cccs1)[C@H]1CCc2c(O)cccc2C1 | 0.0303 |

====

recordedConditions: in methanol, 303.15 K
parameterMeasured: solubility (mole fraction)

| moleculeSmiles | testValue |
| --- | --- |
| CCCN(CCc1cccs1)[C@H]1CCc2c(O)cccc2C1 | 0.0107 |
